A short record of GI50 observed with HCT-15 follows.
Provide only the numeric value, understood in µM.

Entry CCCCCCCCCCCCCC(=O)O[C@H]1CC[C@H](NC(=O)[C@H](OC)[C@H](O)[C@@H](O)[C@H](O)/C=C/C(C)C)C(=O)N(C)C1 [BENGAMIDE B] : GI50 on HCT-15 = 0.028

Response field GI50 (HCT-15) for item Cc1nc2ccc(F)cc2c(Cl)c1CCCl : 34.3

Measured GI50 (HCT-15), entry COc1cc2c(/C=C3/C(=O)N(C)c4ccc(O)cc43)c(Cl)[nH]c2cc1C : 0.426

Simply: CCNC(=O)c1cc(Cl)ccc1NC(=O)C12CC3CC(CC(C3)C1)C2 , HCT-15, GI50 = 32.7

* * *

- Test system: OVCAR-3
- assay: NCI tumour cell line growth inhibition, 48 h
The source made the active and inactive calls. No stated cut-off is given here; in the data, active = GI50 up to about 1.1 µM and inactive = higher.
quantity kind: GI50

molecule | meas value
C=C(C)CN(CC#N)CC(=C)C | > 100 µM (inactive)
OCCOCn1nncc1Cn1ncc2c(O)ncnc21 | 28.6 µM (inactive)
NC1CC(=O)c2c1sc(Cl)c2Cl (stereo unspecified) | > 100 µM (inactive)
Nc1ncnc2c1N=CN(Oc1ccccc1)N2 | > 100 µM (inactive)
Fc1ccc(C2SCc3nc4ccccc4n32)cc1F (stereo unspecified) | 26.9 µM (inactive)

Consider CC#CC(OCC)(OCC)OCC . Its measured GI50 is > 100 µM (inactive)

Consider OC(COc1cccc2ccccc12)CN1CCOCC1 (stereo unspecified) . Its measured GI50 is > 100 µM (inactive)

Lab note: measured GI50 of CS(C)(=O)=Nn1c(=O)n2n(c1=O)C1c3ccccc3C2c2ccccc21 was > 100 µM (inactive)

For record C/C=C(/C)C(=O)O[C@H]1[C@H]2[C@@H]([C@@H](OC(C)=O)[C@H](C)C(=O)[C@@]34C[C@@H](C)C(=O)[C@]3(/C=C(\C)[C@H]1OC(C)=O)O4)C2(C)C the listed GI50 is 3.95 µM (inactive)

Kindly note the recorded GI50 for O=C(CN1C(=O)c2ccccc2C1=O)C(O)CN1C(=O)c2ccccc2C1=O (stereo unspecified) , which is > 100 µM (inactive)

The recorded GI50 for entry O=C(N/N=C\c1cccc2c([N+](=O)[O-])cccc12)Nc1ccccc1 equals 14.2 µM (inactive)

* * *

- Tested on: HL-60
- assay: NCI tumour cell line growth inhibition, 48 h
Activity calls are given as the source filed them. Cut-off read from the data, not from the text of the source: active = GI50 up to about 1.1 µM and inactive = higher.
The categories you may choose from are 1 (active), 0 (inactive)

Solved cases (5 shown):
molecule | classification
Cc1cc2c(cc1-c1cc3c(cc1C)C(C(C)C)=C(O)C(=O)/C3=C\Nc1nc(-c3ccccc3)cs1)/C(=C/Nc1nc(-c3ccccc3)cs1)C(=O)C(O)=C2C(C)C | 0
CN(C)CCOc1cc2c(c3ccccc13)-c1ccccc1C2O (stereo unspecified) | 0
Cc1ccccc1-n1c(=O)sc2c(=O)n(-c3ccccc3)c(=S)[nH]c21 | 0
CSC1SCC2C(=O)N(C)C(C(C)C)C(=O)OCC(NC(=O)c3cnc4ccccc4n3)C(=O)NC(C)C(=O)N(C)C1C(=O)N(C)C(C(C)C)C(=O)OCC(NC(=O)c1cnc3ccccc3n1)C(=O)NC(C)C(=O)N2C (stereo unspecified) | 1
COc1cccc(C2N3CCCCC3[C@@H]3c4[nH]c5ccccc5c4CCN23)c1OC (stereo partly specified) | 0

Assay result, entry Nc1nc(Cl)cc(NCC2(CO)CCC(Cc3ccccc3)C2)n1 (stereo unspecified) — outcome?
0

* * *

- Test system: RXF 393
- assay: NCI tumour cell line growth inhibition, 48 h
Calls of active or inactive are those of the source. Cut-off read from the data, not from the text of the source: active = GI50 up to about 1.1 µM and inactive = higher.
// allowed return values: active, inactive

Please review the entries below; each comes with its answer.
molecule | classification
CCc1n[nH]c(=O)n1/N=C/c1ccccc1Cl | active
Cc1c2c(OCCN3CCCCC3)nn(C)c(=O)c2c(C)n1-c1ccccc1 | inactive
CCOC(=O)N1c2ccccc2N(C(=O)OCC)C1CC(=O)/C=C/c1ccccc1 | inactive
COc1ccc2cc3nc(O)cc(O)c3cc2c1OC | inactive
C=C1CC(CC)(CCN2C(=O)c3ccccc3C2=O)OC1=O (centres undefined) | inactive
CN(CCO)c1nc2c(c(=O)[nH]1)CNCC2 | inactive

Recorded test outcome, item N#C/C(=C\c1cn(Cc2ccccc2)c2ccccc12)c1nn(-c2ccccc2)c(N)c1C#N
inactive

Write down the call the test reported for this molecule. Item: CCCCCCCCCCCCCC(=O)O[C@H]1CC[C@H](NC(=O)[C@H](OC)[C@H](O)[C@@H](O)[C@H](O)/C=C/C(C)C)C(=O)N(C)C1 [BENGAMIDE B]
active

Can you look up the reported call for Oc1ccc(Cl)cc1C1=NC(/N=C\c2ccccc2)=NC(c2ccccc2)C1 (centres undefined) for me?
inactive

Lab log entry: CC(C)CC1C(=O)NCCC(NC(=O)C(N)Cc2ccc(O)cc2)C(=O)NC(Cc2ccccc2)C(=O)NC(Cc2ccccc2)NC1=O (centres undefined) — outcome as called in the assay?
inactive

Write down the call the test reported for this molecule. Item: O=S(=O)(O)c1ccc2cc(/N=N/c3c(O)ccc4ccccc34)ccc2c1
inactive

For this molecule, state the assay outcome: CN(C)CCNC1=Nc2ccccc2C(=O)N2CSCC12 (centres undefined)
inactive

I'd appreciate the recorded outcome for Cc1cc(O)ccc1C1(c2ccc(F)cc2)OC(=O)c2ccccc21 (centres undefined) from this test.
inactive

Recorded call for COc1ccc2nc3c4c(nccc4c2c1)-c1ncccc1C3=O ?
active

Hello, I am checking results. What call was entered for COc1cc(-c2cc(=O)c3c(OC)c(OC)c(OC)c(OC)c3o2)c(OC)c(OC)c1OC ?
inactive

Please state the recorded outcome for this molecule: CCN(CC)CCn1c2cc3c(cc2c(=O)c2cccnc21)OCO3
inactive

* * *

Item-by-item account of GI50
- Test system: SN12C
- assay: NCI tumour cell line growth inhibition, 48 h
The source made the active and inactive calls. No stated cut-off is given here; in the data, active = GI50 up to about 1.1 µM and inactive = higher.

compound | target or system | GI50
Nc1ccc2nc(NCc3ccc(F)cc3)cnc2c1 | SN12C | > 100 µM (inactive)
CC(=O)OCC1(C)C(O)CCC2(C)C1CCC1CC3CC12CCC3(O)CO (stereo unspecified) | SN12C | > 100 µM (inactive)
C1CC[N+]23CCCC[N+]2(C1)CCCC3 (stereo unspecified) | SN12C | > 100 µM (inactive)
CC1(C)CCCC2(C)C3=C(CCC12)C(=O)OC3 (stereo unspecified) | SN12C | > 100 µM (inactive)
O=CNNC(=O)Nc1cccc2ccccc12 | SN12C | > 100 µM (inactive)

Here's the next entry for you.
For C=C1[C@H](OCC(C)C)[C@@H](OCC(C)C)[C@@H](O)C(C)(C)/C=C/[C@H](C)C(=O)[C@@]2(O)C[C@H](C)[C@H](O)[C@@H]2[C@H]1OCC(C)C the compound record lists GI50 as > 7.5 µM (inactive)

* * *

- Tested on: XF498
- assay: NCI tumour cell line growth inhibition, 48 h
The source made the active and inactive calls. No stated cut-off is given here; in the data, active = GI50 up to about 1.1 µM and inactive = higher.
Permitted responses: YES for active, NO for inactive

Illustrative cases are given below, each with its answer.
molecule | target or system | classification
O=C(CC1(O)C(=O)Nc2ccc([N+](=O)[O-])cc21)c1ccncc1 (centres undefined) | XF498 | NO
CCCSS[C@H]1NC(=O)[C@H]1NC(=O)COc1ccccc1 | XF498 | NO
CCOC(=O)/C(C#N)=C\Sc1ccccc1 | XF498 | NO
COc1ccc2cc3nc(O)cc(O)c3cc2c1OC | XF498 | NO
CC#CC(OCC)(OCC)OCC | XF498 | NO
CC(c1ccccc1)C(O)S(=O)(=O)O (centres undefined) | XF498 | NO
CCCCN(CCCC)CC(C(=O)Nc1ccc([N+](=O)[O-])cc1[N+](=O)[O-])/C(C)=N\NC(=O)C[N+](C)(C)C (centres undefined) | XF498 | NO
CCN(CC)CCOc1ccc(C(O)(Cc2ccc(OC)cc2)c2ccccc2)cc1 (centres undefined) | XF498 | NO
C[Si](C)(C)/C=C\CCCN1C(=O)CCC1=O | XF498 | NO
Clc1ccccc1C1=NN(c2ccccc2)C2c3cc(Br)ccc3OCC12 (centres undefined) | XF498 | NO

State the result this test recorded for COc1ccc(CC2NCCc3cc(OC)c(OC)cc32)cc1 (centres undefined) .
NO

GET /call?item= COC(=O)C(=O)C(C(=O)C(=O)Nc1ccc(F)cc1)c1nc2ccc([N+](=O)[O-])cc2nc1O (centres undefined) returns the recorded outcome of this test.
NO

Please share the test call associated with CCCCNS(=O)(=O)c1ccc(-c2ccc3c(c2)-c2ccc(S(=O)(=O)NCCCC)cc2S3(=O)=O)cc1 .
NO

For COc1ccc(C2=NNC(=O)OC2c2ccccc2)cc1 (centres undefined) , which call appears in the assay record?
NO
